# Substrate: gfPET
# Experiment Summary: Proxy for plastic degradation [Released monomer concentration (HPLC/LC-MS) (TPA+MHET+BHET)]
# Study Conditions: 65 °C
Parameter: Proxy for plastic degradation (mmol/h)
Supply the numeric figure in mmol/h, leaving out any unit text.

Recorded results for 2 proteins are shown here.
unnamed (protein) MANPYERGPNPTDALLEARSGPFSVSEENVSRLSASGFGGGTIYYPRENNTYGAVAISPGYTGTEASIAWLGERIASHGFVVITIDTITTLDQPDSRAEQLNAALNHMINRASSTVRSRIDSSRLAVMGHSMGGGGSLRLASQRPDLKAAIPLTPWHLNKNWSSVTVPTLIIGADLDTIAPVATHAKPFYNSLPSSISKAYLELDGATHFAPNIPNKIIGKYSVAWLKRFVDNDTRYTQFLCPGPRDGLFGEVEEYRSTCPF
0.2
unnamed (protein) MENPYERGPDPTTQSVEAARGPYAVSQITVGGQFGSYSGGTIYYPTSTADGKFGAVAIAPGFLSFQSSVAWLGPRIASQGFVVMTIDTGTIFDQPAQRGDQLLDALDFLTQRSSVKDRIDPNRLAVAGWSWGGGGSLEAAADRPSLKAAIPMAGWNLNTNWSRLTTPVLVVGVQNDLIAPVAMHSEPFYNSIRSEKAYLELAGGSHFTVTSANTPQAKLMISWLKRFVDNDTRYEQFICPGPSRGFSVSEYRSTCPY
0

Now look at this entry.
Sample unnamed (protein) MDNPYERGPDPTTQSVEAARGPYAVSQITVGGQFGSYSGGTIYYPTSTADGKFGAVAIAPGFLSFQSSVAWLGPRLASQGFVVMTIDTGTIFDQPAQRGDQLLDALDFLTQRSSVKDRIDPNRLAVAGWSMGGGGSLEAAADRPSLKAAIPMAGWNLNTNWSRLTTPVLVVGVQNDLIAPVGSHSEPFYNSIRSEKAYLELAGGSHFTVTSANTPQAKLMISWLKRFVDNDTRYEQFICPGPSRGFSVSEYRSTCPF ; Proxy for plastic degradation observed: 0
